Origin of values: patent EP4813979A1

Assay: Pharmacokinetic test of CD-1 mice
Format: in vivo
Design: concentration or dose not given beside the values
Details: mouse; male CD-1 mice, single oral gavage (PO), plasma
measured_parameter: AUC(0-t)

Please go through the list and note AUC(0-t) for each molecule.
1. CCc1cc(Nc2ncc(Cl)c(Nc3ccccc3C(=O)NC)n2)c(OC)cc1N1CCN(C(=O)CN2CCC(c3cc4c(cc3F)c(N3CCC(=O)NC3=O)nn4C)C(F)(F)C2)CC1 (stereo not shown) [TA-003]
2. CCc1cc(Nc2ncc(Cl)c(Nc3ccccc3C(=O)NC)n2)c(OC)cc1N1CCN(C(=O)CN2CCC(c3ccc4c(N5CCC(=O)NC5=O)nn(C)c4c3)C(F)(F)C2)CC1 (stereo not shown) [Comparative Example 1-1, reference compound]
3. CCc1cc(Nc2ncc(Cl)c(Nc3ccccc3P(C)(C)=O)n2)c(OC)cc1N1CCN(C(=O)CN2CCC(c3cc4c(cc3F)c(N3CCC(=O)NC3=O)nn4C)C(F)(F)C2)CC1 (stereo not shown) [TA-005]
4. CCc1cc(Nc2ncc(Br)c(Nc3ccccc3C(=O)NC)n2)c(OC)cc1N1CCN(C(=O)CN2CCC(c3cc4c(cc3F)c(N3CCC(=O)NC3=O)nn4C)C(F)(F)C2)CC1 (stereo not shown) [TA-004]

20600 ng·h/mL
14300 ng·h/mL
36300 ng·h/mL
28800 ng·h/mL
